# study-target: Escherichia coli ParC/ParE tetramer protein (Escherichia coli, UniProt P0AFI2+P20083)
# Sequence (P20083 whole entry): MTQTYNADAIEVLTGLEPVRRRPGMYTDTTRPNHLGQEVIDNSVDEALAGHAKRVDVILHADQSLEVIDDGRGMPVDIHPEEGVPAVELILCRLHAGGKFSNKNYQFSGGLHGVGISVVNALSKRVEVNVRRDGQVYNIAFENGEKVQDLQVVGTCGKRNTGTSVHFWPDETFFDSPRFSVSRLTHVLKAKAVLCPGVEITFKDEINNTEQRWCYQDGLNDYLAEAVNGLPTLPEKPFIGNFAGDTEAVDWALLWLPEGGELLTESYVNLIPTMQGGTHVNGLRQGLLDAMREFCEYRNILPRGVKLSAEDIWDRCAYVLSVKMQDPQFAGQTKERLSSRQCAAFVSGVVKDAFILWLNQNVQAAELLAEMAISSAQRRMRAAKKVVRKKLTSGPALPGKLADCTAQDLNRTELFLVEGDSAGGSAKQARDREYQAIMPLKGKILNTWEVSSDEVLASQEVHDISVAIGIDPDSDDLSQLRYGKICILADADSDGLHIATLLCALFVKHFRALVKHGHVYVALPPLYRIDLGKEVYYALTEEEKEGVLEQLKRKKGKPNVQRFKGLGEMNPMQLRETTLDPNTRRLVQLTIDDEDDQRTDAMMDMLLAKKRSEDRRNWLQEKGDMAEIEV
# Sequence (P0AFI2 whole entry): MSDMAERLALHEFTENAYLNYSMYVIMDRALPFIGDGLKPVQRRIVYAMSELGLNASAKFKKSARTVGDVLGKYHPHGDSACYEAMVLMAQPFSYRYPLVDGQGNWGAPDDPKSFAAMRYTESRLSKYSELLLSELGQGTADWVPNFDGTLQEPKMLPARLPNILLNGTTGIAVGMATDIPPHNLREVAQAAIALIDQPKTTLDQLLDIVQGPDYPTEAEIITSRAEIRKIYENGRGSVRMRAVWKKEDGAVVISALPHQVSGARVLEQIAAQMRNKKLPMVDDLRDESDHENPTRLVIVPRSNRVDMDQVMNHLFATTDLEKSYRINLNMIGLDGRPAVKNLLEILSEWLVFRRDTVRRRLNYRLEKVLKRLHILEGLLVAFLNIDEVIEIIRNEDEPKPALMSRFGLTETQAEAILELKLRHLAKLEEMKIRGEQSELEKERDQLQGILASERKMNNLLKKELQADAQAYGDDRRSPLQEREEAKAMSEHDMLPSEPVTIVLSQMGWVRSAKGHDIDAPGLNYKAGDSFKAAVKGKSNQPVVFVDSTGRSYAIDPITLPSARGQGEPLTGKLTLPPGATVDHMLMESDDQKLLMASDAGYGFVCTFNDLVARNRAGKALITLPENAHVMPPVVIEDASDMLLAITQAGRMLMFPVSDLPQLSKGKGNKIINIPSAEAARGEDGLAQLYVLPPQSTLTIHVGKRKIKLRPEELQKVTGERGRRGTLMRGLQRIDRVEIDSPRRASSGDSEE
# protocol-summary: E. coli ParC/ParE ATPase inhibition assay (malachite green phosphate detection)
# experimental-setup: ATPase activity of ParE subunit of reconstituted ParC/ParE tetramer; 0.16 mM ATP; 24 hours at room temperature
pIC50: −log10 of the molar value.
assay-readout: pIC50

{"compound": "NC(Cn1c(=O)ccc2ncc(Sc3ccccc3)cc21)C1CCC(NCc2ccc3c(n2)NC(=O)CO3)CC1 (single isomer, unassigned; enantiomer a)", "assay-value": 8.22}
{"compound": "COc1ccc2ncc(=O)n(CC(N)[C@H]3CC[C@H](NCc4ccc5c(n4)NC(=O)CO5)CC3)c2c1 (single isomer, unassigned; enantiomer b) [Example 2(b)]", "assay-value": 8.40}
{"compound": "NC(Cn1c(=O)cnc2ccc(F)cc21)[C@H]1CC[C@H](NCc2ccc3c(n2)NC(=O)CO3)CC1 (single isomer, unassigned)", "assay-value": 7.62}
{"compound": "N#Cc1ccc2ccc(=O)n(CC(N)C3CCC(NCc4ccc5c(n4)NC(=O)CS5)CC3)c2c1 (racemic)", "assay-value": 7.92}
